These entries and their values trace back to patent US7964352B2.

- test_target: DeepVent (3′-exo-) DNA polymerase (Pyrococcus sp., UniProt Q51334, D141A/DEL493-1029/E143A)
- Construct: purchased
- Sequence (Q51334 other isoform, or with tags, fused parts or gaps D141A/E143A/DEL493-1029): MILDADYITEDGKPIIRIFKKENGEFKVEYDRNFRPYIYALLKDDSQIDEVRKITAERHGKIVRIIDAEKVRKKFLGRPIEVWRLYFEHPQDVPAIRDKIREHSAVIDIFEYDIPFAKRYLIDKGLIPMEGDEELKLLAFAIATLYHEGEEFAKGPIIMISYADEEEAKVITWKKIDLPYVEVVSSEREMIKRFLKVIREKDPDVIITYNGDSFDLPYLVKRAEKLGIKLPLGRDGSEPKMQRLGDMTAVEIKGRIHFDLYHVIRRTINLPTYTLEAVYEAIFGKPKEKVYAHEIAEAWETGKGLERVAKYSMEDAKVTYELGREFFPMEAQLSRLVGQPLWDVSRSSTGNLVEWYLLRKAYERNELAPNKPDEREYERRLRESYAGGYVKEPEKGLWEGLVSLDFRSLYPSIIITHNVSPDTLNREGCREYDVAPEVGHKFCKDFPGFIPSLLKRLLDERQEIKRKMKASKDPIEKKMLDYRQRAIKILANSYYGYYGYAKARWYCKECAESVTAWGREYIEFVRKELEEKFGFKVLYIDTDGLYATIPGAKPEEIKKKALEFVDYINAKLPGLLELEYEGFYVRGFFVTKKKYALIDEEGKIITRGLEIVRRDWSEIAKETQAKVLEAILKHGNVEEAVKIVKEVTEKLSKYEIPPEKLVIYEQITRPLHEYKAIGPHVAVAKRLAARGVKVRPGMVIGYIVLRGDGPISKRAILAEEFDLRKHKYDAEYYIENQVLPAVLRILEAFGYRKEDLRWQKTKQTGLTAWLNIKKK
- experiment_summary: Polymerase end-point (PEP) assay, DeepVent (3′-exo-)
- Assay type: biochemical, Pyrococcus species GB-D
- protocol_conditions: DeepVent (3′-exo-): 72° C.; incorporation concentration at 50%; read-out: IC50 values
property: IC50
# output: numeric value plus its unit

>>> df
                           substance_smiles  property  measured_value
0  O=[N+]([O-])c1ccccc1CNc1ncnc2c1ncn2[C@H]1C[C@H](O)[C@@H](COP(=O)(O)OP(=O)(O)OP(=O)(O)O)O1      IC50        0.011 µM

Consider the additional compound presented here.
Which measured IC50 value corresponds to "Nc1ncnc2c1ncn2[C@H]1CC[C@@H](COP(=O)(O)OP(=O)(O)OP(=O)(O)O)O1" ?
3.4 µM
